As shown below, each of these binders has a reported binding signal value.
# TARGET UNDER TEST: T1, RBFOX1 RRM RbFoxmut (Fox-RRM*) (Homo sapiens, UniProt Q9NWB1 109-208, R118D;E147R;N151S;E152T)
# T1 sequence: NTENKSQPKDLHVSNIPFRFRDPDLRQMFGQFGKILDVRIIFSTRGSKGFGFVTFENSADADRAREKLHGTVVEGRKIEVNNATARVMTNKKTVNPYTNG
# ASSAY METHOD TEXT: EMSA; HiTS-Eq, 1 nM pool, 10 min; buffer printed only for the single-RNA assays: 10 mM Tris pH 7.5, 150 mM NaCl, 3.4 mM EDTA, 0.001% NP-40, 30 C
# TEST SETTINGS: tags: His6 N-terminal (pET28a); label: 5' 32P
Over roughly 16,000 sequences, “ka relative to ugcaugu” has its median near 0.096; the highest 2% begin near 0.35. Many of the other results were omitted from the sample, so the highest values are more common in it than they were.

Below, each entry is followed by its recorded binding signal result.
Given the binder CCCUACC (DNA:RNA) RNA: GGGAGACCGGAAUUCAGAUUGUCCCCCUACCUUAAAUCCCGUCGUAGCCACCA DNA 1: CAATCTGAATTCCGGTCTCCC DNA 2: TGGTGGCTACGACGGGATT , write its reported binding signal. 0.0909 KA relative to UGCAUGU

Return binding signal (reported value) for this binder: GCAUAAU (DNA:RNA) RNA: GGGAGACCGGAAUUCAGAUUGUCCGCAUAAUUUAAAUCCCGUCGUAGCCACCA DNA 1: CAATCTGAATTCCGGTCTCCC DNA 2: TGGTGGCTACGACGGGATT 0.115 KA relative to UGCAUGU

Note down binding signal recorded for GCGAGUG (DNA:RNA) RNA: GGGAGACCGGAAUUCAGAUUGUCCGCGAGUGUUAAAUCCCGUCGUAGCCACCA DNA 1: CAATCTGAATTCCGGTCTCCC DNA 2: TGGTGGCTACGACGGGATT 0.184 KA relative to UGCAUGU

Note binding signal for the binder shown: CACUUAC (DNA:RNA) RNA: GGGAGACCGGAAUUCAGAUUGUCCCACUUACUUAAAUCCCGUCGUAGCCACCA DNA 1: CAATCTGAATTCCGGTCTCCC DNA 2: TGGTGGCTACGACGGGATT 0.1 KA relative to UGCAUGU

Tell me binding signal reported for CACAGAG (DNA:RNA) RNA: GGGAGACCGGAAUUCAGAUUGUCCCACAGAGUUAAAUCCCGUCGUAGCCACCA DNA 1: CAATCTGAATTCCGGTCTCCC DNA 2: TGGTGGCTACGACGGGATT 0.124 KA relative to UGCAUGU

Identify the reported binding signal for the following entry. GUUAAGG (DNA:RNA) RNA: GGGAGACCGGAAUUCAGAUUGUCCGUUAAGGUUAAAUCCCGUCGUAGCCACCA DNA 1: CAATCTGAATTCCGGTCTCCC DNA 2: TGGTGGCTACGACGGGATT 0.0786 KA relative to UGCAUGU

Next:
Please give the documented binding signal of GCAUUUU (DNA:RNA) RNA: GGGAGACCGGAAUUCAGAUUGUCCGCAUUUUUUAAAUCCCGUCGUAGCCACCA DNA 1: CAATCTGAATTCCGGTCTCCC DNA 2: TGGTGGCTACGACGGGATT 0.113 KA relative to UGCAUGU

Give recorded binding signal. UGAUAGC (DNA:RNA) RNA: GGGAGACCGGAAUUCAGAUUGUCCUGAUAGCUUAAAUCCCGUCGUAGCCACCA DNA 1: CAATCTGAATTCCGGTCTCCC DNA 2: TGGTGGCTACGACGGGATT 0.0858 KA relative to UGCAUGU

Determine from records and report binding signal for UGCUUUG (DNA:RNA) RNA: GGGAGACCGGAAUUCAGAUUGUCCUGCUUUGUUAAAUCCCGUCGUAGCCACCA DNA 1: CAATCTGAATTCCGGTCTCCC DNA 2: TGGTGGCTACGACGGGATT 0.179 KA relative to UGCAUGU
